Assay: In vitro toxicity test (fluorimetric DNA assay, Hoechst)
Type: cell-based, human
Conditions: human, IMR-32 neuroblastoma cells; 125 μg/ml; 24 h; Table 13; read-out: % survival
reported property: viability at 24 h, 125 µg/mL (%)
Write it as a number; the unit % goes unstated.

Requested read-out: viability at 24 h, 125 µg/mL. Entry: Ac-AKGIQEVKGGKDAQNLIGISI-NH2 [PRE 5]
94

====

For each entry below, report its viability at 24 h, 10000 µg/mL value.
Experiment: In vitro toxicity test (fluorimetric DNA assay, Hoechst)
Type: cell-based, human
Conditions: human, IMR-32 neuroblastoma cells; 10 mg/ml; 24 h; with pinocytic endocytosis reagent; read-out: % survival

Requested read-out: viability at 24 h, 10000 µg/mL. Entry: Ac-KDAQNLIGISI-NH2 [PRE 4, Ac-KDAQNLIGISI-NH2]
103%

Requested read-out: viability at 24 h, 10000 µg/mL. Entry: Ac-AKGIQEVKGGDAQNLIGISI-NH2 [PRE 3]
120%
